Listing: response (photon counts) of selected binders
test-system: T1, biotin-MBP-tagged AtHAB1 (residues 172-511), Q9CAJ0
T1 chain: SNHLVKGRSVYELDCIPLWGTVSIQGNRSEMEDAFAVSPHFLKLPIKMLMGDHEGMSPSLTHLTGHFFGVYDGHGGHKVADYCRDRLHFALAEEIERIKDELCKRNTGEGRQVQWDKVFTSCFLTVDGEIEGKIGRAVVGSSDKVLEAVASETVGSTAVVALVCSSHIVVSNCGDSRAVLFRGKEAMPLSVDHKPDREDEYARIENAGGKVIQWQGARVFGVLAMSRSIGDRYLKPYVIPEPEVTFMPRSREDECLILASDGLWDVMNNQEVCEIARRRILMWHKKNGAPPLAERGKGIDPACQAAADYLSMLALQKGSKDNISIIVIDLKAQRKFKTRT
protocol-details: AlphaScreen
reported-conditions: chain shown with the change; ABA (5 μM); parent: est. 17000; read off a plot

binder	response (photon counts)
H6-SUMO-tagged FePYR1 I127V (protein) MEQQPAAAEPEVPAGLGLTAAEYAELQPTVEAYHRYAVGPGQCSSLVAQRIEAPAAAVWAIVRRFDCPQVYKHFIRSCALRPDPDAGDELRPGRLREVSVISGLPASTSTERLDLLDDARRAFGFTVTGGEHRLANYRSVTTVSELAPAAPAKICTVVLESYVVDVPEGNSEEDTRLFADTVVRLNLQKLKSLAEANATSAAAQATPPPQAE	17000
H6-SUMO-tagged FePYR1 L185C (protein) MEQQPAAAEPEVPAGLGLTAAEYAELQPTVEAYHRYAVGPGQCSSLVAQRIEAPAAAVWAIVRRFDCPQVYKHFIRSCALRPDPDAGDELRPGRLREVSVISGLPASTSTERLDLLDDARRAFGFTITGGEHRLANYRSVTTVSELAPAAPAKICTVVLESYVVDVPEGNSEEDTRLFADTVVRCNLQKLKSLAEANATSAAAQATPPPQAE	16000
H6-SUMO-tagged FePYR1 I75V (protein) MEQQPAAAEPEVPAGLGLTAAEYAELQPTVEAYHRYAVGPGQCSSLVAQRIEAPAAAVWAIVRRFDCPQVYKHFVRSCALRPDPDAGDELRPGRLREVSVISGLPASTSTERLDLLDDARRAFGFTITGGEHRLANYRSVTTVSELAPAAPAKICTVVLESYVVDVPEGNSEEDTRLFADTVVRLNLQKLKSLAEANATSAAAQATPPPQAE	16000
H6-SUMO-tagged FePYR1 L185A (protein) MEQQPAAAEPEVPAGLGLTAAEYAELQPTVEAYHRYAVGPGQCSSLVAQRIEAPAAAVWAIVRRFDCPQVYKHFIRSCALRPDPDAGDELRPGRLREVSVISGLPASTSTERLDLLDDARRAFGFTITGGEHRLANYRSVTTVSELAPAAPAKICTVVLESYVVDVPEGNSEEDTRLFADTVVRANLQKLKSLAEANATSAAAQATPPPQAE	18000
H6-SUMO-tagged FePYR1 E131D (protein) MEQQPAAAEPEVPAGLGLTAAEYAELQPTVEAYHRYAVGPGQCSSLVAQRIEAPAAAVWAIVRRFDCPQVYKHFIRSCALRPDPDAGDELRPGRLREVSVISGLPASTSTERLDLLDDARRAFGFTITGGDHRLANYRSVTTVSELAPAAPAKICTVVLESYVVDVPEGNSEEDTRLFADTVVRLNLQKLKSLAEANATSAAAQATPPPQAE	18000
H6-SUMO-tagged FePYR1 I75A (protein) MEQQPAAAEPEVPAGLGLTAAEYAELQPTVEAYHRYAVGPGQCSSLVAQRIEAPAAAVWAIVRRFDCPQVYKHFARSCALRPDPDAGDELRPGRLREVSVISGLPASTSTERLDLLDDARRAFGFTITGGEHRLANYRSVTTVSELAPAAPAKICTVVLESYVVDVPEGNSEEDTRLFADTVVRLNLQKLKSLAEANATSAAAQATPPPQAE	9600

Origin of the recorded values: paper PMC5656587
